- Target: T1, human CD71 extracellular domain (human, UniProt P02786 89-760)
- T1 construct: also called hCD71; human CD71-ECD
- T1 sequence (P02786 89-760): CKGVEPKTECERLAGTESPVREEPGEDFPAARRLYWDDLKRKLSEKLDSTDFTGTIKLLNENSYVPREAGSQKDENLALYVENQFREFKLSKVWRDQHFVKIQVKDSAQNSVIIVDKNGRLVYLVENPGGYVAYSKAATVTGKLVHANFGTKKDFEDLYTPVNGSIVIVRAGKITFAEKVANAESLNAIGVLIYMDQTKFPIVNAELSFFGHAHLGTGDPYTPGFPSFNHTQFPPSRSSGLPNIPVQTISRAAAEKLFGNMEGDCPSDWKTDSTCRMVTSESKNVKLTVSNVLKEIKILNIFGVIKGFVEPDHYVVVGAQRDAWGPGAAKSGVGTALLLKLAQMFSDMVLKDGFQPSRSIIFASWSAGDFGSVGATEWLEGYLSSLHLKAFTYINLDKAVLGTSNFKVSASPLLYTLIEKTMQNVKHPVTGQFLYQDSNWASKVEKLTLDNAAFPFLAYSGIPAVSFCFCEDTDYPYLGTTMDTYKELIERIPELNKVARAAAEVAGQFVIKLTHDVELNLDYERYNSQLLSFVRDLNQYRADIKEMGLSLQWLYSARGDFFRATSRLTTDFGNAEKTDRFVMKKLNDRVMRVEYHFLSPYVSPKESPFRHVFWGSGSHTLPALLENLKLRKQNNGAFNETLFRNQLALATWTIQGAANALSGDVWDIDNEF
- Assay Info: primary ELISA screen, human CD71-ECD; further: test concentration or dose not given here
Listed binders paired with reported RLU
// return numeric value only (unit: RLU, not printed)

Examples from the recorded data:
CD71-binding FN3 domain of SEQ ID NO: 344 (designed binder, not shown: C-terminal poly-histidine tag added to each FN3 domain) MSLPAPKNLFVSRVTEDSARLSWTAPDAAFDSFEIGYWENAYKGEAIVLTVPGSERSYDLTGLKPGTEYWVQIGGVKGGNWSAPLSAIFTT    1.33e+06
CD71-binding FN3 domain of SEQ ID NO: 340 (designed binder, not shown: C-terminal poly-histidine tag added to each FN3 domain) MSLPAPKNLVVSRVTEDSSRLSWTAPDAAFDSFEIGYFENLYLGEAIVLTVPGSERSYDLTGLKPGTEYWVQIGGVKGGNWSAPLSAIFTT    3e+06

Turning now to a further record.
Req: Give its RLU value. Item: CD71-binding FN3 domain of SEQ ID NO: 336 (designed binder, not shown: C-terminal poly-histidine tag added to each FN3 domain) MSLPAPKNLVVSRVTEDSARLSWTAPDAAFDSFNIMYHEHYDNGEAIVLTVPGSERSYDLTGLKPGTEYSVVINGVKGGPHSAPLSAIFTT
Resp: 1.15e+06
